Origin of measurements: PubChem BioAssay AID463115

biological target: Furin (Homo sapiens) (UniProt P09958); experiment: human furin inhibitors, primary screen, biochemical, fluorescence intensity (AID 463115); conditions: purified furin, fluorogenic substrate cleavage, stronger effect = higher value; at 30 µM unless noted
Sequence (P09958 108-714 limits assumed): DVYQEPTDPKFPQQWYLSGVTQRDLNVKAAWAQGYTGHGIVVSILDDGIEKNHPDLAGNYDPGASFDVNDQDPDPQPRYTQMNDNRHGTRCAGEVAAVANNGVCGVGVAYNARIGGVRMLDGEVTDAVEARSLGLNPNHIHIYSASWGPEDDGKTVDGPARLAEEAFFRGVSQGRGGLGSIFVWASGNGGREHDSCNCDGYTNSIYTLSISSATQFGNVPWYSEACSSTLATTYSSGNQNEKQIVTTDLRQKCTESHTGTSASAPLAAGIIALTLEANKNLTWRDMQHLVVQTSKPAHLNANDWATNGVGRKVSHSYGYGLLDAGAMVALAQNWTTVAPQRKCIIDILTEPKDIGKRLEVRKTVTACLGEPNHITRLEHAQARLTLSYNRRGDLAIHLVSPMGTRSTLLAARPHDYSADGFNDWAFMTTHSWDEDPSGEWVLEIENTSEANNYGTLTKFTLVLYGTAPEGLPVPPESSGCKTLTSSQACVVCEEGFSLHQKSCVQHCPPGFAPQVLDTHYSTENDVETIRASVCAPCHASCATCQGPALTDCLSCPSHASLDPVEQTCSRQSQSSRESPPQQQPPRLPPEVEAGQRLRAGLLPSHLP
The campaign covered roughly 220,000 compounds. About 130 (0.059%) were called active. What follows is part of a selection rich in actives, with near analogues and random picks from the rest.

{"compound": "COc1ccc([N+](=O)[O-])cc1NC(=O)COC(=O)/C=C/c1ccco1", "inhibition": "-30.9% (inactive)"}
{"compound": "Cn1c(SCC(=O)Nc2ccc(Cl)cc2)nc(O)cc1=O", "inhibition": "-15% (inactive)"}
{"compound": "C=CCOC(=O)C1=C(C)NC(C)=C(C(=O)OCC=C)C1c1cccs1", "inhibition": "-8.1% [at 20 µM] (inactive)"}
{"compound": "Cc1ccc(C(=O)NC(=S)Nc2ccc3[nH]c(=O)[nH]c3c2)cc1C", "inhibition": "-13.7% (inactive)"}
{"compound": "O=C(NCCc1ccccn1)c1cc(-c2ccc(Cl)cc2)nc2ccccc12", "inhibition": "-20.1% (inactive)"}
{"compound": "OCCC1CN(Cc2cccn2-c2nccs2)CCN1CCc1ccccc1 (configuration not stated)", "inhibition": "-12.8% (inactive)"}
{"compound": "CSc1ccccc1-c1nnc(-c2ccc(Cl)cc2)o1", "inhibition": "-17.9% [at 20 µM] (inactive)"}
{"compound": "Nc1c(NCCc2ccccc2)c2ccccc2oc1=O", "inhibition": "-0.514% (inactive)"}
{"compound": "CCOC(=O)/C(C#N)=C\\c1c(C)cc(C)c(COC(C)=O)c1C", "inhibition": "-3.87% [at 20 µM] (inactive)"}
{"compound": "O=c1[nH][nH]c(C(F)(F)F)c1C=NCc1ccccc1Cl", "inhibition": "-7.43% [at 20 µM] (inactive)"}
{"compound": "O=C(CNC(=O)COc1ccccc1)NCCc1ccccn1", "inhibition": "-14% (inactive)"}
{"compound": "CC(C)C1Nc2c(C(=O)O)cccc2C(Nc2ccccc2C(=O)O)C1(C)C (configuration not stated)", "inhibition": "-28% (inactive)"}
{"compound": "CCO[C@H]1OC(C(=O)N2CCCCCCC2)=C[C@@H](c2ccc(C(F)(F)F)cc2)[C@@H]1CCCO", "inhibition": "-28% (inactive)"}
{"compound": "Cc1nc2sc(C(c3ccco3)N3CCC4(CC3)OCCO4)c(O)n2n1 (configuration not stated)", "inhibition": "-16.3% [at 20 µM] (inactive)"}
{"compound": "CCOC(=O)/C(=C\\c1ccc([N+](=O)[O-])cc1)C(=O)c1cc(C(C)=O)c(Nc2ccccc2)s1", "inhibition": "-2.4% (inactive)"}
{"compound": "O=C(Nc1cnn(Cc2ccc(Cl)cc2)c1)C1CCCC1", "inhibition": "-14.4% [at 20 µM] (inactive)"}
{"compound": "CC(C)C(O)C1CCN(Cc2nc(Cc3ccccc3Cl)no2)CC1 (configuration not stated)", "inhibition": "-21.2% (inactive)"}
{"compound": "C[n+]1ccc(/C=C/c2c[nH]c3ccccc23)cc1", "inhibition": "3.06% (inactive)"}
{"compound": "CNC(=O)c1[nH]cnc1C(=O)N[C@@H](CC(C)C)C(=O)OCc1ccccc1", "inhibition": "-29.8% (inactive)"}
{"compound": "COc1ccc(C(=O)Nc2c(Cl)cc(Cl)cc2C(=O)N2CCC(C)CC2)cc1", "inhibition": "-7.28% (inactive)"}
{"compound": "CC(C)(C)NC(=O)/C(=C/c1cccnc1)NC(=O)c1ccco1", "inhibition": "-17% (inactive)"}
{"compound": "Cc1cc(C)n(-c2nnc(C)n2NC(=O)c2cccc(Cl)c2)n1", "inhibition": "-15.9% [at 20 µM] (inactive)"}
